All figures here come from patent US11312727B1.

# Tested on: Influenza strain A549 A/WSN/33 (H1N1)
# assay text: microbe, parasite or virus in culture
# Assay type: cell-based
# setup conditions: A549 cells, influenza A/WSN/33 (H1N1), 20 hours incubation; read-out: A549_A(H1N1) EC50
Binarize EC50 at 30 nM; below is Yes, at or above is No.

Incoming: Check if EC50 falls below 30 nM for O=C1c2c(O)c(=O)ccn2N2CN1C/C=C/CCc1c(F)cccc1C2c1cccc(F)n1 (single isomer, unassigned) [Compound 76A] .
Outgoing: No

Incoming: Try this molecule next: O=C1c2c(O)c(=O)ccn2N2CN1C/C=C\CCc1ccccc1C2c1ccncc1 (single isomer, unassigned) [Compound 52A]
Outgoing: No

Incoming: Note, next up: O=C1c2c(O)c(=O)ccn2N2CN1CCCCCOc1cccc3c1[C@@H]2c1ccccc1SC3 (single isomer, unassigned) [Compound 48B]
Outgoing: Yes

Incoming: What do we get for O=C1c2c(O)c(=O)ccn2N2CN1CCCCCOc1cccc3c1[C@H]2c1ccccc1SC3 (single isomer, unassigned) [Compound 69B] ?
Outgoing: Yes

Incoming: Another molecule to look at: O=C1c2c(O)c(=O)ccn2N2CN1C/C=C/CCc1ccccc1C2c1cccc(F)n1 (single isomer, unassigned) [Compound 78A]
Outgoing: Yes

Incoming: Also, O=C1c2c(O)c(=O)ccn2N2CN1CCCCCOc1cccc3c1[C@H]2c1ccccc1SC3 (single isomer, unassigned) [Compound 48A] please.
Outgoing: No

Incoming: Try this molecule next: O=C1c2c(O)c(=O)ccn2N2CN1CCCCCOc1cccc3c1[C@@H]2c1ccccc1SC3 (single isomer, unassigned) [Compound 69A]
Outgoing: No

Incoming: # repeat for O=C1c2c(O)c(=O)ccn2N2CN1C/C=C/CCc1c(F)cccc1C2c1cccc(F)n1 (single isomer, unassigned) [Compound 76B]
Outgoing: Yes

Incoming: Now try O=C1c2c(O)c(=O)ccn2N2CN1C/C=C\CCc1ccccc1C2c1ccncc1 (single isomer, unassigned) [Compound 52B] .
Outgoing: No

====

Record form. Attribute: CC50. Fill in for each entry.
# assay text: in vitro
# setup conditions: human, CC50, uninfected A549 cells, CellTiter-Glo

Incoming: If you can, please state the reported CC50 value of CC[C@H]1/C=C/COc2c(Cl)cccc2[C@H](c2ccccc2)N2CN1C(=O)c1c(O)c(=O)ccn12 (single isomer, unassigned) [Compound 98AA] .
Outgoing: > 1000 nM

Incoming: Try the compound O=C1c2c(O)c(=O)ccn2N2CN1C/C=C\COc1cccc3c1[C@@H]2c1ccccc1SC3 [Compound 46A]
Outgoing: > 2000 nM

Incoming: Please give the result for CC[C@@H]1/C=C/COc2c(ccc(Cl)c2Cl)[C@H](c2ccccc2)N2CN1C(=O)c1c(O)c(=O)ccn12 (single isomer, unassigned) [Compound 121BA] too.
Outgoing: > 200 nM

Incoming: Thanks! And O=C1c2c(O)c(=O)ccn2N2CN1CC/C=C/COc1cc(F)c(F)c3c1[C@H]2c1ccccc1SC3 (single isomer, unassigned) [Compound 88D] ?
Outgoing: > 100 nM

Incoming: Next compound: CC[C@@H]1/C=C/COc2ccccc2[C@H](c2ccccc2)N2CN1C(=O)c1c(O)c(=O)ccn12 [Compound 39AA]
Outgoing: > 2000 nM

Incoming: Okay, and O=C1c2c(O)c(=O)ccn2N2CN1C1(/C=C/COc3cccc4c3[C@H]2c2ccccc2SC4)CC1 (single isomer, unassigned) [Compound 107B] ?
Outgoing: > 100 nM

====

# assay text: in vitro
# setup conditions: human, CC50, uninfected A549 cells, CellTiter-Glo
Field: CC50. Provide a value for each of the molecules that follow.

Incoming: I'd like to know its CC50. The molecule in question is O=C1c2c(O)c(=O)ccn2N2CN1CCC/C=C\c1cccc3c1[C@H]2c1ccccc1CC3 [Compound 31B]
Outgoing: > 2000 nM

Incoming: O=C1c2c(O)c(=O)ccn2N2CN1CC/C=C/COc1cccc3c1[C@H]2c1cccc(F)c1SC3 (single isomer, unassigned) [Compound 137B] ?
Outgoing: > 200 nM

Incoming: # iterate: O=C1c2c(O)c(=O)ccn2N2CN1[C@@H]1C[C@@H]1CCOc1cccc3c1[C@@H]2c1ccccc1SC3 (stereo in doubt) [Compound 166A]
Outgoing: > 100 nM

Incoming: Query C/C1=C/COc2ccccc2[C@H](c2ccccc2)N2CN(C1)C(=O)c1c(O)c(=O)ccn12 (single isomer, unassigned) [Compound 38B] next
Outgoing: > 2000 nM

Incoming: Another: O=C1c2c(O)c(=O)ccn2N2CN1C/C=C\COc1cc(F)c(F)cc1[C@H]2c1ccccn1 (single isomer, unassigned) [Compound 70B]
Outgoing: > 200 nM

Incoming: Now give it for O=C1c2c(O)c(=O)ccn2N2CN1C/C=C\COc1cc(Cl)ccc1[C@@H]2c1ccccc1 (single isomer, unassigned) [Compound 72B] too.
Outgoing: > 2000 nM

====

# assay text: in vitro
# setup conditions: human, CC50, uninfected A549 cells, CellTiter-Glo
Can you tell me CC50 for the items I'm about to list?

Incoming: Requested read-out: CC50. Entry: O=C1c2c(O)c(=O)ccn2N2CN1CC/C=C/COc1cccc3c1[C@@H]2c1ccccc1SC3 (single isomer, unassigned) [Compound 37C]
Outgoing: > 2 µM

Incoming: Next molecule up: CC[C@H]1C/C=C/COc2c(F)cccc2[C@H](c2ccccc2)N2CN1C(=O)c1c(O)c(=O)ccn12 (single isomer, unassigned) [Compound 105BA]
Outgoing: > 0.2 µM

Incoming: Do the same for O=C1c2c(O)c(=O)ccn2N2CN1C/C=C\COc1cccc3c1[C@H]2c1ccccc1CC3 (single isomer, unassigned) [Compound 33A] please
Outgoing: > 2 µM

====

# assay text: in vitro
# setup conditions: human, CC50, uninfected A549 cells, CellTiter-Glo
property measured: CC50

Incoming: What does the record list as CC50 for O=C1c2c(O)c(=O)ccn2N2CN1C/C=C\COc1c(ccc(F)c1F)[C@H]2c1ccccc1C(F)F (single isomer, unassigned) [Compound 165A] ?
Outgoing: > 0.1 µM

Incoming: Repeat with O=C1c2c(O)c(=O)ccn2N2CN1C/C=C\COc1ccccc1[C@@H]2c1ccccc1F (single isomer, unassigned) [Compound 36A]
Outgoing: > 2 µM

Incoming: // repeat for O=C1c2c(O)c(=O)ccn2N2CN1C[C@@H]1C[C@H]1COc1ccccc1[C@@H]2c1ccccc1 (single isomer, unassigned) [Compound 80AB] and report
Outgoing: > 10 µM

====

# assay text: in vitro
# setup conditions: human, CC50, uninfected A549 cells, CellTiter-Glo
property measured: CC50

Incoming: // returns reported CC50 for input O=C1c2c(O)c(=O)ccn2N2CN1C/C=C\COc1ccc(Cl)cc1[C@@H]2c1ccccc1 (single isomer, unassigned) [Compound 51B]
Outgoing: > 2 µM

Incoming: Next record, please: O=C1c2c(O)c(=O)ccn2N2CN1CCC/C=C/COc1ccccc1[C@H]2c1ccccc1 (single isomer, unassigned) [Compound 67A]
Outgoing: > 2 µM

Incoming: Another molecule to look at: O=C1c2c(O)c(=O)ccn2N2CN1CCCCOc1ccccc1[C@@H]2c1ccccc1 [Compound 8B]
Outgoing: > 2 µM

Incoming: Further, for O=C1c2c(O)c(=O)ccn2N2CN1C1(/C=C/COc3cccc4c3[C@H]2c2ccccc2SC4)CCC1 (single isomer, unassigned) [Compound 147B] ?
Outgoing: > 0.1 µM

Incoming: Could you do the same for O=C1c2c(O)c(=O)ccn2N2CN1C1(/C=C/COc3c(F)cccc3[C@@H]2c2ccccc2)CC1 (single isomer, unassigned) [Compound 95A] , please?
Outgoing: > 1 µM

Incoming: # repeat for O=C1c2c(O)c(=O)ccn2N2CN1C/C=C\COc1ccccc1[C@@H]2c1cccc(F)c1 (single isomer, unassigned) [Compound 63B]
Outgoing: > 2 µM

Incoming: Can you check O=C1c2c(O)c(=O)ccn2N2CN1C/C=C/COCc1ccccc1C2c1ccccc1 (stereo not shown) [Compound 17] next?
Outgoing: > 20 µM

Incoming: Lookup O=C1c2c(O)c(=O)ccn2N2CN1C1(/C=C/COc3ccccc3[C@H]2c2ccccc2)CCC1 (single isomer, unassigned) [Compound 106A]
Outgoing: > 0.2 µM

Incoming: Now give it for O=C1c2c(O)c(=O)ccn2N2CN1C/C=C\COc1cccc3c1[C@H]2c1ccccc1SC3 [Compound 46B] too.
Outgoing: > 0.1 µM

Incoming: Try this molecule too: O=C1c2c(O)c(=O)ccn2N2CN1C/C=C\COc1c(F)cccc1[C@H]2c1ccccc1 (single isomer, unassigned) [Compound 61A]
Outgoing: > 2 µM

Incoming: Also check O=C1c2c(O)c(=O)ccn2N2CN1C/C=C/COc1cccc3c1[C@H]2c1ccccc1SC3 [Compound 46D]
Outgoing: > 0.2 µM

Incoming: Record: O=C1c2c(O)c(=O)ccn2N2CN1CC/C=C\COc1cccc3c1[C@@H]2c1ccccc1SC3 (single isomer, unassigned) [Compound 37A]
Outgoing: > 2 µM

Incoming: Another: O=C1c2c(O)c(=O)ccn2N2CN1C[C@H]1C[C@@H]1COc1cc(F)c(F)c3c1[C@@H]2c1ccccc1SC3 (single isomer, unassigned) [Compound 127AA]
Outgoing: > 0.2 µM
